# Target Entity: T1, human plasma Kallikrein (human, UniProt P03952 20-638, limits assumed)
# T1 construct: also called hPK; human PK
# T1 sequence (P03952 20-638 limits assumed): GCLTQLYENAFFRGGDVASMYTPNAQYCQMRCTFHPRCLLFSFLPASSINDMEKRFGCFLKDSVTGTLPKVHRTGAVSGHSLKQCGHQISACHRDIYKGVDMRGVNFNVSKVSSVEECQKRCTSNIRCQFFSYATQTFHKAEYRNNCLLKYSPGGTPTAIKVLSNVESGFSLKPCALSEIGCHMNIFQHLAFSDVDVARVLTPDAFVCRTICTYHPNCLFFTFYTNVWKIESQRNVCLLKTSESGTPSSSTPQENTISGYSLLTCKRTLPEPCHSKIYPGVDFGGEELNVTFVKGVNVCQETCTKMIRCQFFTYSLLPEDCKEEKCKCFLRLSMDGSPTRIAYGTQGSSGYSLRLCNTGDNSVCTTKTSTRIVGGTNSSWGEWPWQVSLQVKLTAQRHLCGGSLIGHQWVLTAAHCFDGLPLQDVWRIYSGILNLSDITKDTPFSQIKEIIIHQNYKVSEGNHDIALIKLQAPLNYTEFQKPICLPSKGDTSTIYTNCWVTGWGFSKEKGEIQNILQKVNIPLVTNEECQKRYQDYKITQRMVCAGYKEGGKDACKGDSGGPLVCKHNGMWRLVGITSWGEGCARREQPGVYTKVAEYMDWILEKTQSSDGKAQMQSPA
# Experimental Protocol: enzyme inhibition assay
Numbered stars: 1 amine (or outer) side, 2 acyl side, 3 side chain; on linkers, the order of the positions; unused ones are H or OH. Bridge positions count the residues as written; N and C are the ends. TBMB = c1c(C[*:1])cc(C[*:3])cc1C[*:2]
Metric Name: Ki (µM)
Record the value in µM, omitting the unit from your answer.

As a guide, the following entries are already answered.
Binder | Metric Name | Display Unit | Observed Value
Ac-CPSAWRCLHQDLC-NH2 (linker 1-7-13 via TBMB; SMILES CC(=O)N[C@H]1CSCc2cc3cc(c2)CSC[C@H](NC(=O)[C@H](CCCNC(=N)N)NC(=O)[C@H](Cc2c[nH]c4ccccc24)NC(=O)[C@H](C)NC(=O)[C@H](CO)NC(=O)[C@@H]2CCCN2C1=O)C(=O)N[C@@H](CC(C)C)C(=O)N[C@@H](Cc1c[nH]cn1)C(=O)N[C@@H](CCC(N)=O)C(=O)N[C@@H](CC(=O)O)C(=O)N[C@@H](CC(C)C)C(=O)N[C@H](C(N)=O)CSC3) [Ac-(06-34-18) Scram 1] | Ki | µM | 1.09
Ac-CWASPRCLHQDLC-NH2 (linker 1-7-13 via TBMB; SMILES CC(=O)N[C@H]1CSCc2cc3cc(c2)CSC[C@H](NC(=O)[C@H](CCCNC(=N)N)NC(=O)[C@@H]2CCCN2C(=O)[C@H](CO)NC(=O)[C@H](C)NC(=O)[C@H](Cc2c[nH]c4ccccc24)NC1=O)C(=O)N[C@@H](CC(C)C)C(=O)N[C@@H](Cc1c[nH]cn1)C(=O)N[C@@H](CCC(N)=O)C(=O)N[C@@H](CC(=O)O)C(=O)N[C@@H](CC(C)C)C(=O)N[C@H](C(N)=O)CSC3) [Ac-(06-34-18) Scram 2] | Ki | µM | 11.4

The record that follows has no Ki shown yet.
Answer with the recorded Ki of Ac-CWARSPCLHQDLC-NH2 (linker 1-7-13 via TBMB; SMILES CC(=O)N[C@H]1CSCc2cc3cc(c2)CSC[C@H](NC(=O)[C@@H]2CCCN2C(=O)[C@H](CO)NC(=O)[C@H](CCCNC(=N)N)NC(=O)[C@H](C)NC(=O)[C@H](Cc2c[nH]c4ccccc24)NC1=O)C(=O)N[C@@H](CC(C)C)C(=O)N[C@@H](Cc1c[nH]cn1)C(=O)N[C@@H](CCC(N)=O)C(=O)N[C@@H](CC(=O)O)C(=O)N[C@@H](CC(C)C)C(=O)N[C@H](C(N)=O)CSC3) [Ac-(06-34-18) Scram 4] only. 67.5
